Target: Nonstructural protein 5A (Hepatitis C virus) (UniProt Q5L478)
Sequence (Q5L478 as listed by the source): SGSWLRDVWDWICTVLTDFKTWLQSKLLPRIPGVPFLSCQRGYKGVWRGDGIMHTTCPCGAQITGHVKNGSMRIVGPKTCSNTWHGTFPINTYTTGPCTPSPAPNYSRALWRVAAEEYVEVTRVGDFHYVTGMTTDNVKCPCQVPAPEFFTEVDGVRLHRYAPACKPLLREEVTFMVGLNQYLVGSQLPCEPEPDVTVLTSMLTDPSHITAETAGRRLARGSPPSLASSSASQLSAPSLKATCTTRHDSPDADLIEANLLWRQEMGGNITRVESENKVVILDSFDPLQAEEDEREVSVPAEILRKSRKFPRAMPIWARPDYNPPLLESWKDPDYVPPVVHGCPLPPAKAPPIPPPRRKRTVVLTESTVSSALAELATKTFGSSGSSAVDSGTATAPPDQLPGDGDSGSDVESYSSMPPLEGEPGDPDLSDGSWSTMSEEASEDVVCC
Test: Inhibition of NS5A in HCV genotype 3a infected in HuH7 replicon cells assessed as decrease in viral replication after 3 days by RT-PCR method
Format: cell-based
Conditions: Hepatitis C virus subtype 3a
quantityName: EC90
Answer shape: numeric part, then the unit.

| compound | EC90 |
| --- | --- |
| COC(=O)N[C@H](C(=O)N1CCC[C@H]1c1ncc(-c2cc(F)c3c(c2)O[C@@H](c2ccc(C4CC4)s2)n2c-3cc3cc(-c4cnc([C@@H]5CCCN5C(=O)[C@@H](NC(=O)OC)C5CCO[C@H](C)C5)[nH]4)ccc32)[nH]1)C(C)C (some centres not stated) | 7 pM |

Now take the following compound into account.
What does the record list as EC90 for "COC(=O)N[C@H](C(=O)N1CCC[C@H]1c1ncc(-c2cc(F)c3c(c2)O[C@@H](c2ccc(C(F)(F)F)s2)n2c-3cc3cc(-c4cnc([C@@H]5CCCN5C(=O)[C@@H](NC(=O)OC)C5CCOCC5)[nH]4)ccc32)[nH]1)C(C)C" ?
6 pM
